assay: Metabolic stability, pooled human liver microsome incubations; conditions: pHLM, scaling factor 45 mg microsomal protein per gram liver
Recorded Predicted in vivo hepatic clearance, CLH split into classes interval 1 (below 4 mL/min/kg), interval 2 (4 mL/min/kg to below 8 mL/min/kg), interval 3 (8 mL/min/kg or more)

>  <MOLECULE>
COC(=O)[C@@H](NC(=O)c1nn(CCCCF)c2ccccc12)C(C)(C)C [(S)-4F-MDMB-BINACA (4)]

>  <LABEL>
interval 2

$$$$
>  <MOLECULE>
COC(=O)[C@@H](NC(=O)c1nn(Cc2ccc(F)cc2)c2ccccc12)C(C)C [(S)-AMB-FUBINACA (1)]

>  <LABEL>
interval 3

$$$$
>  <MOLECULE>
COC(=O)[C@@H](NC(=O)c1nn(CCCCCF)c2ccccc12)C(C)(C)C [(S)-5F-MDMB-PINACA (2)]

>  <LABEL>
interval 2

$$$$
>  <MOLECULE>
COC(=O)[C@@H](NC(=O)c1cn(CCCCCF)c2ccccc12)C(C)(C)C [(S)-5F-MDMB-PICA (3)]

>  <LABEL>
interval 2

$$$$
>  <MOLECULE>
COC(=O)[C@H](NC(=O)c1cn(CCCCCF)c2ccccc12)C(C)(C)C [(R)-5F-MDMB-PICA (3)]

>  <LABEL>
interval 2

$$$$
>  <MOLECULE>
C=CCCCn1cc(C(=O)N[C@H](C(=O)OC)C(C)(C)C)c2ccccc21 [(S)-MDMB-4en-PICA (12)]

>  <LABEL>
interval 2

$$$$
>  <MOLECULE>
COC(=O)[C@@H](NC(=O)c1cn(CC2CCCCC2)c2ccccc12)C(C)C [(S)-AMB-CHMICA (9)]

>  <LABEL>
interval 1

$$$$
>  <MOLECULE>
COC(=O)[C@H](NC(=O)c1nn(CCCCCF)c2ccccc12)C(C)(C)C [(R)-5F-MDMB-PINACA (2)]

>  <LABEL>
interval 2

$$$$
>  <MOLECULE>
CC(C)[C@H](NC(=O)c1nn(CC2CCCCC2)c2ccccc12)C(N)=O [(S)-AB-[…] (11)]

>  <LABEL>
interval 1

$$$$
>  <MOLECULE>
C=CCCCn1cc(C(=O)N[C@@H](C(=O)OC)C(C)(C)C)c2ccccc21 [(R)-MDMB-4en-PICA (12)]

>  <LABEL>
interval 3

$$$$
>  <MOLECULE>
C=CCCCn1cc(C(=O)N[C@H](C(=O)OC)C(C)C)c2ccccc21 [(S)-AMB-4en-PICA (7)]

>  <LABEL>
interval 3

$$$$
>  <MOLECULE>
CC(C)[C@H](NC(=O)c1nn(Cc2ccc(F)cc2)c2ccccc12)C(N)=O [(S)-AB-FUBINACA (8)]

>  <LABEL>
interval 1

$$$$
>  <MOLECULE>
COC(=O)[C@@H](NC(=O)c1nn(Cc2ccc(F)cc2)c2ccccc12)C(C)(C)C [(S)-MDMB-FUBINACA (6)]

>  <LABEL>
interval 1

$$$$
>  <MOLECULE>
C=CCCCn1cc(C(=O)N[C@@H](C(=O)OC)C(C)C)c2ccccc21 [(R)-AMB-4en-PICA (7)]

>  <LABEL>
interval 3

$$$$
>  <MOLECULE>
C=CCCCn1nc(C(=O)N[C@@H](C(=O)OC)C(C)(C)C)c2ccccc21 [(R)-MDMB-4en-PINACA (5)]

>  <LABEL>
interval 2

$$$$
>  <MOLECULE>
C=CCCCn1nc(C(=O)N[C@H](C(=O)OC)C(C)(C)C)c2ccccc21 [(S)-MDMB-4en-PINACA (5)]

>  <LABEL>
interval 1

$$$$
>  <MOLECULE>
COC(=O)[C@@H](NC(=O)c1nn(CCCCCF)c2ccccc12)C(C)C [(S)-5F-AMB-PINACA (10)]

>  <LABEL>
interval 3

$$$$

---

test: Metabolic stability, pooled human liver microsome incubations; settings: pHLM, 15 min

>  <COMPOUND>
COC(=O)[C@@H](NC(=O)c1nn(Cc2ccc(F)cc2)c2ccccc12)C(C)C [(S)-AMB-FUBINACA (1)]

>  <SCALE UNIT>
%

>  <% parent compound remaining, Average>
0.1

$$$$
>  <COMPOUND>
COC(=O)C(NC(=O)c1cn(CC2CCCCC2)c2ccccc12)C(C)C (stereo in doubt) [(R)-AMB-CHMICA (9)]

>  <SCALE UNIT>
%

>  <% parent compound remaining, Average>
30.4

$$$$
>  <COMPOUND>
C=CCCCn1nc(C(=O)N[C@H](C(=O)OC)C(C)(C)C)c2ccccc21 [(S)-MDMB-4en-PINACA (5)]

>  <SCALE UNIT>
%

>  <% parent compound remaining, Average>
18.6

$$$$
>  <COMPOUND>
COC(=O)[C@@H](NC(=O)c1nn(CCCCCF)c2ccccc12)C(C)(C)C [(S)-5F-MDMB-PINACA (2)]

>  <SCALE UNIT>
%

>  <% parent compound remaining, Average>
22.7

$$$$

---

assay: Metabolic stability, pooled human cryopreserved hepatocyte incubations; conditions: human, hepatocytes, Intrinsic clearance, CLint, pHHeps, alternative hepatocyte cell density 99x10^6 hepatocytes per gram liver

>  <COMPOUND>
COC(=O)[C@@H](NC(=O)c1nn(Cc2ccc(F)cc2)c2ccccc12)C(C)C [(S)-AMB-FUBINACA (1)]

>  <SCALE UNIT>
mL/min/kg

>  <CLint scaled at 0.5 µM>
2980

$$$$
>  <COMPOUND>
COC(=O)[C@@H](NC(=O)c1nn(CCCCCF)c2ccccc12)C(C)C [(S)-5F-AMB-PINACA (10)]

>  <SCALE UNIT>
mL/min/kg

>  <CLint scaled at 0.5 µM>
2220

$$$$
>  <COMPOUND>
COC(=O)[C@H](NC(=O)c1nn(Cc2ccc(F)cc2)c2ccccc12)C(C)(C)C [(R)-MDMB-FUBINACA (6)]

>  <SCALE UNIT>
mL/min/kg

>  <CLint scaled at 0.5 µM>
221

$$$$
>  <COMPOUND>
COC(=O)[C@@H](NC(=O)c1nn(CCCCCF)c2ccccc12)C(C)(C)C [(S)-5F-MDMB-PINACA (2)]

>  <SCALE UNIT>
mL/min/kg

>  <CLint scaled at 0.5 µM>
559

$$$$
>  <COMPOUND>
C=CCCCn1nc(C(=O)N[C@H](C(=O)OC)C(C)(C)C)c2ccccc21 [(S)-MDMB-4en-PINACA (5)]

>  <SCALE UNIT>
mL/min/kg

>  <CLint scaled at 0.5 µM>
632

$$$$
>  <COMPOUND>
CC(C)[C@H](NC(=O)c1nn(CC2CCCCC2)c2ccccc12)C(N)=O [(S)-AB-[…] (11)]

>  <SCALE UNIT>
mL/min/kg

>  <CLint scaled at 0.5 µM>
194

$$$$
>  <COMPOUND>
COC(=O)[C@@H](NC(=O)c1cn(CC2CCCCC2)c2ccccc12)C(C)C [(S)-AMB-CHMICA (9)]

>  <SCALE UNIT>
mL/min/kg

>  <CLint scaled at 0.5 µM>
935

$$$$
>  <COMPOUND>
C=CCCCn1cc(C(=O)N[C@H](C(=O)OC)C(C)(C)C)c2ccccc21 [(S)-MDMB-4en-PICA (12)]

>  <SCALE UNIT>
mL/min/kg

>  <CLint scaled at 0.5 µM>
197

$$$$
>  <COMPOUND>
C=CCCCn1nc(C(=O)N[C@@H](C(=O)OC)C(C)(C)C)c2ccccc21 [(R)-MDMB-4en-PINACA (5)]

>  <SCALE UNIT>
mL/min/kg

>  <CLint scaled at 0.5 µM>
335

$$$$
>  <COMPOUND>
COC(=O)[C@@H](NC(=O)c1cn(CCCCCF)c2ccccc12)C(C)(C)C [(S)-5F-MDMB-PICA (3)]

>  <SCALE UNIT>
mL/min/kg

>  <CLint scaled at 0.5 µM>
188

$$$$
>  <COMPOUND>
COC(=O)[C@@H](NC(=O)c1nn(Cc2ccc(F)cc2)c2ccccc12)C(C)(C)C [(S)-MDMB-FUBINACA (6)]

>  <SCALE UNIT>
mL/min/kg

>  <CLint scaled at 0.5 µM>
275

$$$$
>  <COMPOUND>
C=CCCCn1cc(C(=O)N[C@@H](C(=O)OC)C(C)C)c2ccccc21 [(R)-AMB-4en-PICA (7)]

>  <SCALE UNIT>
mL/min/kg

>  <CLint scaled at 0.5 µM>
1470

$$$$
>  <COMPOUND>
C=CCCCn1cc(C(=O)N[C@H](C(=O)OC)C(C)C)c2ccccc21 [(S)-AMB-4en-PICA (7)]

>  <SCALE UNIT>
mL/min/kg

>  <CLint scaled at 0.5 µM>
1120

$$$$
>  <COMPOUND>
CC(C)[C@H](NC(=O)c1nn(Cc2ccc(F)cc2)c2ccccc12)C(N)=O [(S)-AB-FUBINACA (8)]

>  <SCALE UNIT>
mL/min/kg

>  <CLint scaled at 0.5 µM>
101

$$$$

Hey, just so you know, these numbers are from paper PMC7961380.
